Origin of the recorded values: the NIST ThermoML archive (doi:10.1021/je5005752)

Reported viscosity values are given for each entry in this list.
- condition label: 288.15 K; 101 kPa; Liquid; Falling or rolling sphere viscometry
Reply numerically in mPa·s, unit not repeated.

CC(C)CO = 4.829
CC(C)CCO = 5.057

Pending compound:
The reported viscosity of the compound `CCCO` was 2.514
